Experiment: bi-directional permeability in Caco-2 cell line
Assay type: in vitro ADME, human
Conditions: human, Caco-2, pH 7.4, Caco-2; read-out: Recovery (%) AP-BL
Experimental: Metabolic stability was assessed in mouse and rat liver microsomes. Microsomes are subcellular fractions of hepatocytes and contain CYP450s, the predominant enzymes involved in first-pass metabolism.[66] […] A plasma protein binding assay was performed to assess the extent of compound binding to plasma proteins. […] The bi-directional permeability in Caco-2 cell lines was determined by seeding cells onto an HTS Transwell plate. […]
reported.endpoint: recovery at 2 h (%)

Task: Consider the compound O=C(O)CC[C@@H](NC(=O)Nc1ccc(C(F)(F)F)cc1)C(=O)O and give its measured recovery at 2 h.
Output: 103

Task: What recovery at 2 h value was documented for this compound, O=C(O)CC[C@H](NC(=O)Nc1ccc(Br)cc1)C(=O)O ?
Output: 115

Task: Tell me the measured recovery at 2 h of O=C(O)CC[C@H](NC(=O)Nc1ccc(C(F)(F)F)cc1)C(=O)O , please.
Output: 107

====

assay: metabolic stability in liver microsomes; assay type: in vitro ADME, rat; settings: rat, -Cofactors, 60 min
reported.endpoint: Remaining percentage (%)

Task: Tell me the measured Remaining percentage of O=C(O)CC[C@H](NC(=O)Nc1ccc(C(F)(F)F)cc1)C(=O)O [SSA 1] , please.
Output: 102.14

Task: # lookup: Remaining percentage of O=C(O)CC[C@H](NC(=O)Nc1ccc(Br)cc1)C(=O)O
Output: 102.63

Task: Look at this compound and give its reported Remaining percentage. O=C(O)CC[C@H](NC(=O)Nc1ccc(C(F)(F)F)cc1)C(=O)O [SSA 2]
Output: 97.74

Task: Need Remaining percentage, item O=C(O)CC[C@@H](NC(=O)Nc1ccc(C(F)(F)F)cc1)C(=O)O
Output: 104.13

====

Measured half-life at 1 µM, listed per entry.
Experiment: metabolic stability in liver microsomes
Assay type: in vitro ADME, rat
Conditions: rat liver microsomes, 1 µM, 0.5 mg protein/mL; read-out: in vitro t1/2
Protocol: Metabolic stability was assessed in mouse and rat liver microsomes. Microsomes are subcellular fractions of hepatocytes and contain CYP450s, the predominant enzymes involved in first-pass metabolism.[66] […] Samples were analysed using a Shimadzu liquid chromatography system coupled to a Triple Quad 6500+ mass spectrometry (AB Inc.) Separation of compounds was achieved using an HSS T3 column (50 x 2.1 mm) at a temperature of 40 °C and a binary mobile phase gradient […]

Some entries whose results are on file:
Task: May I ask what half-life at 1 µM has been recorded for O=C(O)CC[C@H](NC(=O)Nc1ccc(Br)cc1)C(=O)O ?
Output: > 3.08 h

Task: Quick one: half-life at 1 µM of O=C(O)CC[C@H](NC(=O)Nc1ccc(C(F)(F)F)cc1)C(=O)O ?
Output: > 3.08 h

---
Task: Endpoint output: half-life at 1 µM of O=C(O)CC[C@@H](NC(=O)Nc1ccc(C(F)(F)F)cc1)C(=O)O . Value?
Output: > 3.08 h

====

experiment: metabolic stability in liver microsomes; type: in vitro ADME, mouse; details: mouse, +Cofactors, 30 min
reported.endpoint: Remaining percentage (%)

Task: Looking for the measured Remaining percentage of O=C(O)CC[C@H](NC(=O)Nc1ccc(C(F)(F)F)cc1)C(=O)O [SSA 1] , can you help?
Output: 98.11

Task: Remaining percentage lookup needed for O=C(O)CC[C@H](NC(=O)Nc1ccc(C(F)(F)F)cc1)C(=O)O [SSA 2] , thanks.
Output: 101.55

Task: // lookup Remaining percentage for O=C(O)CC[C@H](NC(=O)Nc1ccc(Br)cc1)C(=O)O
Output: 97.61

Task: Could you tell me which Remaining percentage is on file for O=C(O)CC[C@@H](NC(=O)Nc1ccc(C(F)(F)F)cc1)C(=O)O ?
Output: 98.24

====

test: kinetic solubility determination in PBS pH 7.4; conditions: PBS, pH 7.4, aqueous buffer, kinetic from dmso stock, Solubility in PBS pH 7.4, kinetic; upper limit set at 300 µM
reported.endpoint: solubility (µM)

Task: Would you mind telling me what solubility value was observed for O=C(O)CC[C@H](NC(=O)Nc1ccc(C(F)(F)F)cc1)C(=O)O ?
Output: 303

Task: Dear colleague, I am looking for the recorded solubility of the following molecule: O=C(O)CC[C@H](NC(=O)Nc1ccc(Br)cc1)C(=O)O
Output: 305

Task: Which solubility reading was recorded for the molecule O=C(O)CC[C@@H](NC(=O)Nc1ccc(C(F)(F)F)cc1)C(=O)O ?
Output: 310

Task: Could you share which solubility value was measured for O=C(O)Cc1ccccc1Nc1c(Cl)cccc1Cl [Diclofenac, reference compound] ?
Output: 281

====

experiment: protein binding in human plasma by equilibrium dialysis; assay type: in vitro ADME; conditions: human, plasma, human plasma, 5 µM, 6 hours, 37 °C; read-out: % Unbound
reported.endpoint: fraction unbound at 6 h, 5 µM

Task: What value of fraction unbound at 6 h, 5 µM has been recorded for this entry: O=C(O)CC[C@@H](NC(=O)Nc1ccc(C(F)(F)F)cc1)C(=O)O [SSA 3]
Output: 0.23

Task: So what does the record say about fraction unbound at 6 h, 5 µM for O=C(O)CC[C@H](NC(=O)Nc1ccc(Br)cc1)C(=O)O [SSA 9] ?
Output: 0.166

Task: Recorded fraction unbound at 6 h, 5 µM for O=C(O)CC[C@H](NC(=O)Nc1ccc(C(F)(F)F)cc1)C(=O)O [SSA 1] , please?
Output: 0.217

====

assay: metabolic stability in liver microsomes; assay type: in vitro ADME, mouse; settings: mouse, +Cofactors, 5 min
reported.endpoint: Remaining percentage (%)

Task: What value of Remaining percentage has been recorded for this entry: O=C(O)CC[C@H](NC(=O)Nc1ccc(C(F)(F)F)cc1)C(=O)O [SSA 2]
Output: 101.97

Task: What Remaining percentage value was documented for this compound, O=C(O)CC[C@@H](NC(=O)Nc1ccc(C(F)(F)F)cc1)C(=O)O ?
Output: 99.16

Task: # get_value(readout='Remaining percentage', item= O=C(O)CC[C@H](NC(=O)Nc1ccc(Br)cc1)C(=O)O )
Output: 101.88

Task: Query (compound): O=C(O)CC[C@H](NC(=O)Nc1ccc(C(F)(F)F)cc1)C(=O)O [SSA 1] ; field requested: Remaining percentage
Output: 100.09

====

test: metabolic stability in liver microsomes; format: in vitro ADME, mouse; details: mouse liver microsomes, 1 µM, 0.5 mg protein/mL; read-out: in vitro t1/2
reported.endpoint: half-life at 1 µM

Below are worked cases with known answers.
Task: Need half-life at 1 µM, item O=C(O)CC[C@H](NC(=O)Nc1ccc(C(F)(F)F)cc1)C(=O)O [SSA 1]
Output: > 3.08 h

Task: Query (molecule): O=C(O)CC[C@@H](NC(=O)Nc1ccc(C(F)(F)F)cc1)C(=O)O [SSA 3] ; field requested: half-life at 1 µM
Output: > 3.08 h

Further cases:
Task: Find the recorded half-life at 1 µM belonging to O=C(O)CC[C@H](NC(=O)Nc1ccc(Br)cc1)C(=O)O [SSA 9] and report it.
Output: > 3.08 h

====

assay: protein binding in human plasma by equilibrium dialysis; type: in vitro ADME; conditions: human, plasma, human plasma, 5 µM, 37 °C
reported.endpoint: remaining at 6 h, 5 µM (%)

Task: Please give the measured remaining at 6 h, 5 µM for this compound: O=C(O)CC[C@H](NC(=O)Nc1ccc(C(F)(F)F)cc1)C(=O)O
Output: 104

Task: Give its remaining at 6 h, 5 µM value. Item: O=C(O)CC[C@@H](NC(=O)Nc1ccc(C(F)(F)F)cc1)C(=O)O
Output: 102

Task: Reported remaining at 6 h, 5 µM, compound O=C(O)CC[C@H](NC(=O)Nc1ccc(Br)cc1)C(=O)O : ____
Output: 106

====

experiment: metabolic stability in liver microsomes; assay type: in vitro ADME, mouse; conditions: mouse, -Cofactors, 60 min
reported.endpoint: Remaining percentage (%)

Task: Quick one: Remaining percentage of O=C(O)CC[C@H](NC(=O)Nc1ccc(C(F)(F)F)cc1)C(=O)O [SSA 1] ?
Output: 103.10

Task: Return reported Remaining percentage; argument: O=C(O)CC[C@@H](NC(=O)Nc1ccc(C(F)(F)F)cc1)C(=O)O [SSA 3]
Output: 93.98

Task: Give the measured Remaining percentage of O=C(O)CC[C@H](NC(=O)Nc1ccc(Br)cc1)C(=O)O [SSA 9] .
Output: 103.83

Task: Requested field: Remaining percentage. Item: O=C(O)CC[C@H](NC(=O)Nc1ccc(C(F)(F)F)cc1)C(=O)O [SSA 2]
Output: 102.89

====

experiment: metabolic stability in liver microsomes; assay type: in vitro ADME, mouse; settings: mouse, +Cofactors, 15 min
reported.endpoint: Remaining percentage (%)

Task: Query (compound): O=C(O)CC[C@H](NC(=O)Nc1ccc(C(F)(F)F)cc1)C(=O)O [SSA 1] ; field requested: Remaining percentage
Output: 98.69

Task: Bench note: what Remaining percentage did O=C(O)CC[C@H](NC(=O)Nc1ccc(C(F)(F)F)cc1)C(=O)O [SSA 2] show?
Output: 102.46

Task: Which Remaining percentage is reported for this compound? O=C(O)CC[C@H](NC(=O)Nc1ccc(Br)cc1)C(=O)O
Output: 100.09

Task: Reported Remaining percentage, compound O=C(O)CC[C@@H](NC(=O)Nc1ccc(C(F)(F)F)cc1)C(=O)O : ____
Output: 100.05
